# SYSTEM TESTED: recombinant full-length RACK1 protein (ITC) (human, UniProt P63244 1-317)
# ASSAY DETAILS: ITC; LARP4 peptide (400 μM; 300 μM for 600–625) injected into RACK1 (40 μM; 30 μM) in the cell; iTC200; 298K; 20 mM HEPES, 300 mM NaCl, 10% glycerol, 1 mM DTT pH 7.5; triplicate
# CONDITION DETAILS: both partners purified
PROPERTY MEASURED: pKd
Give bare numbers, as −log10 of the molar value.

Worked examples follow.
>>> number("HsLARP4 peptide 575–625 (La-related protein 4 (LARP4), human, residues 575-625; source: synthetic peptide (GenScript)) peptide: LNQTTIPVSPPSTTKPSRASTASPCNNNINAATAVALQEPRKLSYAEVCQK")
5.57
>>> number("RKLSYAEVCQK (La-related protein 4 (LARP4), human, residues 615-625 (within CR2); source: synthetic peptide (GenScript)) [HsLARP4 peptide 615–625]")
5.52
>>> number("QEPRKLSYAEVCQK (La-related protein 4 (LARP4), human, residues 612-625; source: synthetic peptide (GenScript)) [HsLARP4 peptide 612–625]")
5.70

Now for the binder whose pKd we want.
Prompt: May I ask what pKd has been recorded for HsLARP4 peptide 587–637 (La-related protein 4 (LARP4), human, residues 587-637; source: synthetic peptide (GenScript)) peptide: TTKPSRASTASPCNNNINAATAVALQEPRKLSYAEVCQKPPKEPSSVLVQP ?
Completion: 5.64

These entries and their values trace back to paper doi:10.1101/2024.11.01.621267.
